Item-by-item account of pEC50
# EXPERIMENTAL_TARGET: hSTING (Homo sapiens, UniProt Q86WV6, G230A/H232R/R293Q/R71H)
# Sequence (Q86WV6 whole entry R71H/G230A/H232R/R293Q): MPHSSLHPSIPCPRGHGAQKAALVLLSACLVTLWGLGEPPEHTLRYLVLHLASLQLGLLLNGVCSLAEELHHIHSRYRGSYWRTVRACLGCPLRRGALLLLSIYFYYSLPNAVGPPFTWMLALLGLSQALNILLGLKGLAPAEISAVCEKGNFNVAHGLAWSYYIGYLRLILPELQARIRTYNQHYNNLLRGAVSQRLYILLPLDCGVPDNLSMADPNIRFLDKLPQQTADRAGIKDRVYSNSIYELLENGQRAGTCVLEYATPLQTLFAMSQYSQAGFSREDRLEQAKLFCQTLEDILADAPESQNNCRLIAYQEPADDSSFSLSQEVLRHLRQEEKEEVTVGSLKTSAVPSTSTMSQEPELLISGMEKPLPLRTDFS
# EXPERIMENTAL_DETAILS: STING reporter assay (luciferase) in THP1-Dual KO-IFNAR2 cells stimulated with 2′3′cGAMP
# EXPERIMENTAL_CONDITIONS: 2′3′cGAMP 15 μM with Lipofectamine 2000, 24 h, luciferase reporter activity, compounds 0.0017-100 μM
# Protocol: STING pathway activation by the compounds described herein was measured using THP1-Dual™ cells (KO-IFNAR2). […] 2 mL of solution A and 2 m1 Solution B was mixed and incubated for 20 min at room temperature (RT). […] Luciferase reporter activity was then measured. EC50 values were calculated by using standard methods known in the art. […] Luciferase reporter activity was then measured. EC50 values were calculated by using standard methods known in the art.
pEC50: −log10 of the molar value.

In: For the compound shown here, CCN1CCN(c2ccc3[nH]cc(NC(=O)Nc4ccc(C(F)(F)F)cc4)c3n2)CC1 , give the reported pEC50.
Out: 4.00 to 5.30

In: For the compound shown here, O=C(Nc1ccc(C(F)(F)F)cc1)Nc1c[nH]c2ccc(N3CCN(C4CCC(F)(F)CC4)CC3)nc12 , give the reported pEC50.
Out: 4.00 to 5.30

Others:
In: For the compound shown here, CCN1CCN(c2ccc3[nH]cc(NC(=O)Nc4ccc(C(F)(F)F)c(Cl)c4)c3n2)CC1 , give the reported pEC50.
Out: 4.00 to 5.30

In: For the compound shown here, CC(C)CN1CCN(c2ccc3[nH]cc(NC(=O)Nc4ccc(C(F)(F)F)cc4)c3n2)CC1 , give the reported pEC50.
Out: 4.00 to 5.30

In: For the compound shown here, CC(C)OC1CCC(N2CCN(c3ccc4[nH]cc(NC(=O)Nc5ccc(C(F)(F)F)cc5)c4n3)CC2)CC1 (stereo not drawn) , give the reported pEC50.
Out: 4.00 to 5.30

In: For the compound shown here, O=C(Nc1ccc(C(F)(F)F)cc1)Nc1c[nH]c2ccc(N3CCN(CCC(F)(F)F)CC3)nc12 , give the reported pEC50.
Out: 4.00 to 5.30

In: For the compound shown here, O=C(Nc1ccc(C(F)(F)F)cc1)Nc1c[nH]c2ccc(N3CCN(Cc4ccccc4)CC3)nc12 , give the reported pEC50.
Out: 4.00 to 5.30

In: For the compound shown here, O=C(Nc1ccc(C(F)(F)F)cc1)Nc1c[nH]c2ccc(N3CCN(c4ccccc4)CC3)nc12 , give the reported pEC50.
Out: 6.00 to 6.70

In: For the compound shown here, O=C(Nc1ccc(C(F)(F)F)cc1)Nc1c[nH]c2ccc(N3CCN(Cc4cccnc4)CC3)nc12 , give the reported pEC50.
Out: 5.30 to 6.00

In: For the compound shown here, CC(C)c1cnn(-c2ccc3[nH]cc(NC(=O)Nc4ccc(C(F)(F)F)cc4)c3n2)c1 , give the reported pEC50.
Out: 4.00 to 5.30

In: For the compound shown here, O=C(Nc1ccc(C(F)(F)F)cc1)Nc1c[nH]c2ccc(N3CCN(CC(F)(F)F)CC3)nc12 , give the reported pEC50.
Out: 4.00 to 5.30

In: For the compound shown here, CC(C)(C)OC(=O)N1CCN(c2ccc3[nH]cc(NC(=O)Nc4ccc(C(F)(F)F)cc4)c3n2)CC1 , give the reported pEC50.
Out: 4.00 to 5.30
